- Test system: L1210 leukemia ip in BDF1 mice, survival T/C
- experiment.description: NCI In Vivo Anticancer Drug Screen. Data for tumor model L1210 Leukemia (intraperitoneal) in B6D2F1 (BDF1) mice
- run.parameters: endpoint: mean survival time; dose: 100.0 mg/kg/injection; schedule: Q01DX001 (ip); vehicle: saline; higher = longer survival
Toxic doses and inconclusive results are not listed.
endpoint.label: T/C

compound: CC(=O)N(c1ccccc1)C(C(=O)c1ccccc1)c1ccccc1 (stereo unspecified)
endpoint.label: T/C
result: 102 % of control

compound: COc1ccccc1C(=O)P(=O)(OC)OC
endpoint.label: T/C
result: 104 % of control

compound: CCOc1cc(C#N)c(OCC)cc1N
endpoint.label: T/C
result: 103 % of control

compound: O=S1(=O)C(Cl)(Cl)SC(Cl)(Cl)S(=O)(=O)C1(Cl)Cl
endpoint.label: T/C
result: 96 % of control

compound: CC1CCCC1Sc1ccccc1 (stereo unspecified)
endpoint.label: T/C
result: 91 % of control

compound: O=C(O)C1OC1(c1ccccc1Cl)c1ccccc1Cl (stereo unspecified)
endpoint.label: T/C
result: 95 % of control

compound: O=C(O)/C=C\C(=O)Nc1ccc(Cc2ccc(NC(=O)/C=C\C(=O)O)cc2)cc1
endpoint.label: T/C
result: 115 % of control

compound: CCC1(NS(=O)(=O)c2ccc(N)cc2)C(=O)N(C)C(=O)N(C)C1=O
endpoint.label: T/C
result: 94 % of control

compound: C/C(=N/OC(=O)N(C)C)c1cc(Cl)ccc1Cl
endpoint.label: T/C
result: 100 % of control

compound: ClC(Cl)=C(c1ccc(Cl)cc1)c1ccc(Cl)cc1
endpoint.label: T/C
result: 101 % of control

compound: Cc1nc(N)sc1S(=O)(=O)F
endpoint.label: T/C
result: 96 % of control

compound: CCCCSC(=N)N
endpoint.label: T/C
result: 94 % of control

compound: COC1CCC(N)CC1 (stereo unspecified)
endpoint.label: T/C
result: 109 % of control

compound: O=C1c2cc(Br)ccc2-c2ccc(Br)cc21
endpoint.label: T/C
result: 100 % of control

compound: c1cc2cc(c1)CCc1cccc(c1)CC2
endpoint.label: T/C
result: 100 % of control

compound: Ic1ccc(/C=N/Nc2nnc(N/N=C/c3ccc(I)cc3)c3ccccc23)cc1
endpoint.label: T/C
result: 96 % of control

compound: COc1ccc(-c2sc(C)c(-c3ccc(OC)cc3)c2C)cc1
endpoint.label: T/C
result: 96 % of control

compound: CC(C)(O)C1(O)CCCC1
endpoint.label: T/C
result: 93 % of control

compound: Cn1c2ccccc2c(=O)c2ccccc21
endpoint.label: T/C
result: 117 % of control

compound: O=C1C(=O)c2ccc(Br)cc2C(O)=C1C(c1ccccc1)c1ccccc1
endpoint.label: T/C
result: 100 % of control

compound: C=C1C(=O)O[C@@H]2/C=C(\C)CC/C=C(/C)CC[C@@H]12
endpoint.label: T/C
result: 86 % of control

compound: N#CCCN1CCC(=O)c2ccccc21
endpoint.label: T/C
result: 101 % of control

compound: CC1CCC2C(CCC3CCCCC32)C1 (stereo unspecified)
endpoint.label: T/C
result: 107 % of control

compound: O=C1OC2=C(c3ccccc3)C(=O)OC2=C1c1ccccc1
endpoint.label: T/C
result: 97 % of control

compound: CC(C1=C(CCN(C)C)Cc2ccccc21)c1ccccn1 (stereo unspecified)
endpoint.label: T/C
result: 107 % of control

compound: CC(=O)OCC1OC(SSC2OC(COC(C)=O)C(OC(C)=O)C(OC(C)=O)C2OC(C)=O)C(OC(C)=O)C(OC(C)=O)C1OC(C)=O (stereo unspecified)
endpoint.label: T/C
result: 93 % of control
